tgt: T1, human ENTPD2 (Homo sapiens, UniProt Q9Y5L3)
T1 construct: residues 29-462 of human or cyno ENTPD2 were cloned into expression vector; GP67 signal peptide (N); made in house; host or cells: High Five (Trichoplusia ni) insect cells, baculovirus
T1 sequence (Q9Y5L3 29-462): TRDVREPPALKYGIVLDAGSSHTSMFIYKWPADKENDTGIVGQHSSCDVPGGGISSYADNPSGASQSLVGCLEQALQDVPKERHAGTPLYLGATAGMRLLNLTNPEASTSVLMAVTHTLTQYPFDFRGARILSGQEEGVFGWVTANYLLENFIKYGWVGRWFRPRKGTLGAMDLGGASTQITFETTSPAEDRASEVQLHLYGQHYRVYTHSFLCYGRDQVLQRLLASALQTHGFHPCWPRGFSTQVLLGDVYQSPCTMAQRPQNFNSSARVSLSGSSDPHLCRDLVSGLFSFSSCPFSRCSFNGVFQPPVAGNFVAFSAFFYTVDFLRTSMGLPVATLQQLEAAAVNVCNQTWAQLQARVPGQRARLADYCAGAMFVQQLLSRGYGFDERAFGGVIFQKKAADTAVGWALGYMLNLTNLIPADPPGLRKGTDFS
measurement-description: Biacore (SPR) affinity to human ENTPD2 ECD
Type: binding
stated-conditions: 25° C.
metric-name: kd
Enter the number, and then the unit.

Request the reported kd associated with mAb3: humanized anti-human ENTPD2 antibody from mAb17; VH SEQ ID NO: 33, VL SEQ ID NO: 29 (antibody, V domains shown) VH: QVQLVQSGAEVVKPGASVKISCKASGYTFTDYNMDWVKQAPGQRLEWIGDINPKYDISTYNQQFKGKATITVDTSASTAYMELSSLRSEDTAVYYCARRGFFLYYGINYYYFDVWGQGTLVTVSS VL: EIVLTQSPATLSASPGERITLSCSASSSVSYIHWYQQKPGQAPRLLIYSTSNLASGIPARFSGSGSGTFYTLTISSVEPEDAAVYYCHQWSSYPWTFGGGTKLEIK
0.00016 s⁻¹

For mAb8: anti-human ENTPD2 antibody of Table 1; VH SEQ ID NO: 91, VL SEQ ID NO: 102 (antibody, V domains shown) VH: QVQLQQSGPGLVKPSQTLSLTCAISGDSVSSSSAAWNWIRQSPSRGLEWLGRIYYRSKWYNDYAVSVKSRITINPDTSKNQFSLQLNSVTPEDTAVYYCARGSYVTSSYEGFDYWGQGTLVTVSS VL: SYELTQPLSVSVALGQTARITCSGDNLPEKYAYWYQQKPGQAPVLVIYDDNKRPSGIPERFSGSNSGNTATLTISRAQAGDEADYYCQSYGKWGWTWVFGGGTKLTVL , what is its reported kd?
0.00094 s⁻¹

Requested field: kd. Item: mAb2: humanized anti-human ENTPD2 antibody from mAb17; VH SEQ ID NO: 25, VL SEQ ID NO: 29 (antibody, V domains shown) VH: QVQLVQSGAEVVKPGASVKISCKASGYTFTDYNMDWVKQAPGQRLEWIGDINPKYDISTYNQQFKGKATITVDKSASTAYMELSSLRSEDTAVYYCARRGFFLYYGINYYYFDVWGQGTLVTVSS VL: EIVLTQSPATLSASPGERITLSCSASSSVSYIHWYQQKPGQAPRLLIYSTSNLASGIPARFSGSGSGTFYTLTISSVEPEDAAVYYCHQWSSYPWTFGGGTKLEIK
0.00018 s⁻¹

Tell me the measured kd of mAb6: humanized anti-human ENTPD2 antibody from mAb16; VH SEQ ID NO: 70, VL SEQ ID NO: 74 (antibody, V domains shown) VH: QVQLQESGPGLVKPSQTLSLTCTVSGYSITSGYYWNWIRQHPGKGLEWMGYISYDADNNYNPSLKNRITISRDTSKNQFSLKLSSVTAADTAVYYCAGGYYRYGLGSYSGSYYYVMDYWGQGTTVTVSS VL: DTQMTQSPSSLSVSVGDRATITCKASQSVDYEGHSYMNWYQQKPGKAPKLLIYAASNLESGVPSRFSGSGSGTDFTLTISSVQPEDFATYYCQQSNEDPPTFGGGTKLEIK , please.
0.00026 s⁻¹

Bench note: what kd did mAb10: anti-human ENTPD2 antibody of Table 1; VH SEQ ID NO: 132, VL SEQ ID NO: 125 (antibody, V domains shown) VH: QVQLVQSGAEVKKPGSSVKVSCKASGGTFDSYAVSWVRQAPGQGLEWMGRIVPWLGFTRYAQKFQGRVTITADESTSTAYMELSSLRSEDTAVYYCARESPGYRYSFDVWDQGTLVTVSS VL: SYELTQPLSVSVALGQTARITCSGDAIGEKYVYWYQQKPGQAPVLVIYDDNNRPSGIPERFSGSNSGNTATLTISRAQAGDEADYYCASYDLQQARWVFGGGTKLTVL show?
0.00024 s⁻¹

Need kd of mAb9: anti-human ENTPD2 antibody of Table 1; VH SEQ ID NO: 115, VL SEQ ID NO: 125 (antibody, V domains shown) VH: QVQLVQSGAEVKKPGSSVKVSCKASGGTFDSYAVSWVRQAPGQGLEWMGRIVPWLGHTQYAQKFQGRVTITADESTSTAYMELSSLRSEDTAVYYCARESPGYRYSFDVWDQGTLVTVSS VL: SYELTQPLSVSVALGQTARITCSGDAIGEKYVYWYQQKPGQAPVLVIYDDNNRPSGIPERFSGSNSGNTATLTISRAQAGDEADYYCASYDLQQARWVFGGGTKLTVL , thanks.
0.0003 s⁻¹

Would you mind telling me what kd value was observed for mAb7: humanized anti-human ENTPD2 antibody from mAb17; VH SEQ ID NO: 25, VL SEQ ID NO: 78 (antibody, V domains shown) VH: QVQLVQSGAEVVKPGASVKISCKASGYTFTDYNMDWVKQAPGQRLEWIGDINPKYDISTYNQQFKGKATITVDKSASTAYMELSSLRSEDTAVYYCARRGFFLYYGINYYYFDVWGQGTLVTVSS VL: EIVLTQSPATLSASPGEEITLSCSASSSVSYIHWYQQKPGQAPRLLIYSTSNLASGIPARFSGSGSGTFYTLTISSVEPEDAAVYYCHQWSSYPWTFGGGTKLEIK ?
0.00019 s⁻¹

For the molecule mAb5: humanized anti-human ENTPD2 antibody from mAb16; VH SEQ ID NO: 46, VL SEQ ID NO: 64 (antibody, V domains shown) VH: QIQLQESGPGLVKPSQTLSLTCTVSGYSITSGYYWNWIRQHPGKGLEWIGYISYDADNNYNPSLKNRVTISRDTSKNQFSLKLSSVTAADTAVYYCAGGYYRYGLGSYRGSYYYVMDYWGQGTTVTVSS VL: ETVLTQSPATLSVSPGERATISCKASQSVDYDGNSYMNWYQQKPGQAPRLLIYAASNLESGIPARFSGSGSGTDFTLTISSVEPEDAATYYCQQSNEDPPTFGGGTKLEIK , what kd is on record?
0.00016 s⁻¹
